PROTOCOL_DESCRIPTION: MTS cytotoxicity assay on HeLa cells
Type: cell-based
RECORDED_CONDITIONS: human
ENDPOINT_NAME: CC50 at 24 h (µM)
// return numeric value only (unit: µM, not printed)

Exam item: Look up CC50 at 24 h for this compound: `COC(=O)Cc1cc2c(cc1C(=O)c1cccc(Br)c1)OCO2`
Marked response: 219

---

ENDPOINT_NAME: melting point

Exam item: Look up melting point for this compound: `O=C(O)Cc1cc2c(cc1C(=O)c1ccc(I)cc1)OCO2`
Marked response: 239.5 to 241.5 °C

Exam item: // repeat for `COC(=O)Cc1cc2c(cc1C(=O)c1ccc(Cl)cc1Cl)OCO2` and report
Marked response: 95 to 97 °C

Exam item: // repeat for `O=C(O)Cc1cc2c(cc1C(=O)c1ccccc1Br)OCO2` and report
Marked response: 145 to 147 °C

Exam item: // repeat for `COC(=O)Cc1cc2c(cc1C(=O)c1ccc(I)cc1)OCO2` and report
Marked response: 119 to 121 °C

Exam item: // repeat for `O=C(O)Cc1cc2c(cc1C(=O)c1ccccc1I)OCO2` and report
Marked response: 147 to 149 °C

Exam item: // repeat for `O=C(O)Cc1cc2c(cc1C(=O)c1cccc(Br)c1)OCO2` and report
Marked response: 154 to 156 °C

Exam item: // repeat for `O=C(O)Cc1cc2c(cc1C(=O)c1ccccc1)OCO2` and report
Marked response: 184.5 to 186.5 °C

Exam item: // repeat for `O=C(O)Cc1cc2c(cc1C(=O)c1ccc(Cl)cc1Cl)OCO2` and report
Marked response: 168.5 to 170 °C

Exam item: // repeat for `COC(=O)Cc1cc2c(cc1C(=O)c1ccccc1Br)OCO2` and report
Marked response: 85 to 87 °C

Exam item: // repeat for `COC(=O)Cc1cc2c(cc1C(=O)c1cccc(Br)c1)OCO2` and report
Marked response: 72.5 to 74.5 °C

Recorded values, source paper PMC7487730.
